Target: human IDO1 (Homo sapiens)
Test: Assessment of human IDO-1 inhibitory activity in Hela cells (Interferon-gamma stimulated HeLa cells, Ehrlich reagent, absorbance 490 nm)
Type: cell-based
Parameters: endogenous in cells; host or cells: HeLa cells stimulated with interferon-gamma
Conditions: Hela Human IDO-1 cellular assay
Experimental Endpoint: IC50

| Compound | IC50 |
| --- | --- |
| CC(CC(=O)O)c1ccc(N(CC(C)(C)O)C2CCCCC2)c(Nc2ccc(Cl)cc2)c1 (single isomer, unassigned) [Example 48 Enantiomer 1] | < 0.005 µM |
| CCC(CC(=O)O)c1ccc(N(CCOC)C2CCOCC2)c(NC(=O)Nc2ccc(Cl)cc2F)c1 (single isomer, unassigned) [Example 1265] | < 0.05 µM |
| CC[C@H](CC(=O)O)c1ccc(N(CC)C2CCOCC2)c(Nc2ccc(N(C)C)nc2)c1 (single isomer, unassigned) [Example 506] | > 0.05 µM |
| CCOc1ncc(Nc2cc(C(CC)CC(=O)O)ccc2N(CC)C2CCOC2)cn1 (single isomer, unassigned) [Example 945 D1] | < 0.05 µM |
| COCC(CC(=O)O)c1ccc(N2C[C@@H](C)O[C@@H](C)C2)c(NC(=O)Nc2ccc(C#N)cc2)c1 (single isomer, unassigned) [Example 605 Diastereomer 1] | > 0.05 µM |

Reported IC50, compound CCCN(c1ccc([C@@H](COC)CC(=O)O)cc1NC(=O)Nc1ccc(C#N)cc1)C1CCOCC1 (single isomer, unassigned) [Example 567] : ____
< 0.05 µM

Same read-out for CCC(CC(=O)O)c1ccc(N(C)C2CCOCC2)c(Nc2cnc(OC)nc2)c1 (single isomer, unassigned) [Example 868] ?
< 0.05 µM

Same read-out for CCN(c1cc(F)c([C@@H](COC)CC(=O)O)cc1NC(=O)Nc1ccc(C#N)cc1)C1CCOCC1 (single isomer, unassigned) [Example 849] ?
> 0.05 µM

====

Target: human IDO1 (Homo sapiens)
Experiment: Assessment of human IDO-1 inhibitory activity in Hela cells (Interferon-gamma stimulated HeLa cells, Ehrlich reagent, absorbance 490 nm)
Type: cell-based
Set-up: endogenous in cells; host or cells: HeLa cells stimulated with interferon-gamma
Conditions: Hela Human IDO-1 cellular assay
pIC50: −log10 of the molar value.
Items are presented alongside their recorded pIC50.

| Molecule | pIC50 |
| --- | --- |
| CCOc1ncc(Nc2cc([C@H](CC)CC#N)ccc2N(CC)C2CCOCC2)cn1 | < 7.30 |

Reported pIC50, molecule C[C@@H]1CN(c2ccc(C(CC(=O)O)C3CC3)cc2Nc2ccc(Cl)cc2)C[C@H](C)O1 (single isomer, unassigned) : ____
> 7.30

Same read-out for CCOc1ncc(Nc2cc(C(CC)CC(=O)O)ccc2N2CCOCC2)cn1 (single isomer, unassigned) [Example 7 Enantiomer 2] ?
< 7.30

====

Molecular target: human IDO1 (Homo sapiens, UniProt P14902)
Sequence (P14902 whole entry): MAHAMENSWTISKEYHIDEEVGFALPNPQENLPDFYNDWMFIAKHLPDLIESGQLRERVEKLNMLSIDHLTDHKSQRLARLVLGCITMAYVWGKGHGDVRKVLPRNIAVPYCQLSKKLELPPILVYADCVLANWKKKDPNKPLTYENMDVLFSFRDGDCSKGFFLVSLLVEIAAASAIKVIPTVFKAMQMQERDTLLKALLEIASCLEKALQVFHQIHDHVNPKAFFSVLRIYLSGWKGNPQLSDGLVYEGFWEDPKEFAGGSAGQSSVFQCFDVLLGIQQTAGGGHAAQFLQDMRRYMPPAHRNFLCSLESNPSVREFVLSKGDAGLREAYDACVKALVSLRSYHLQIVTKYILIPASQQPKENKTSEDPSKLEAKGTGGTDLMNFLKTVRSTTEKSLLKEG
Experiment: Assessment of human IDO-1 inhibitory activity in HEK cells (human IDO1/HEK293 cells, kynurenine read-out with Ehrlich reagent, absorbance 490 nm)
Assay type: cell-based
Design: expressed in transfected cells
Conditions: HEK Human IDO-1 cellular assay
pIC50: −log10 of the molar value.
Items are presented alongside their recorded pIC50.

Recorded pIC50, per entry:
| Compound | Test System | pIC50 |
| --- | --- | --- |
| CC[C@@H](CC(=O)O)c1ccc(N(CC)C2CCOCC2)c(Nc2cnc(OCC3CC3)nc2)c1 (single isomer, unassigned) [Example 480] | human IDO1 (Homo sapiens, UniProt P14902) | > 8.30 |
| CC[C@H](CC(=O)O)c1ccc(N(CC)C2CCOCC2)c(NC(=O)Nc2ccc(Cl)cc2F)c1 (single isomer, unassigned) [Example 526] | human IDO1 (Homo sapiens, UniProt P14902) | > 8.30 |
| CCC(CC(=O)O)c1ccc(N(CC(C)C)C2CCCCC2)c(Nc2ccc(Cl)c(OCC3CC3)c2)c1 (single isomer, unassigned) [Example 645] | human IDO1 (Homo sapiens, UniProt P14902) | > 7.30 |

Reported pIC50, compound CCN(c1ccc(C(CC(=O)O)c2ccccc2)cc1NC(=O)Nc1ccc(Cl)cc1F)C1CCOCC1 (single isomer, unassigned) [Example 595] : ____
< 7.30

Same read-out for CC[C@H](CC(=O)O)c1ccc(N2CCOC[C@@H]2C(C)C)c(NC(=O)Nc2ccc(C)cc2)c1 (single isomer, unassigned) [Example 85] ?
< 7.30

Same read-out for CC[C@H](CC(=O)O)c1ccc(N(CC)C2CCOCC2)c(NC(=O)Nc2ccc(F)cc2)c1 (single isomer, unassigned) [Example 527] ?
> 7.30

Same read-out for CCC(CC(=O)O)c1ccc(N2CCC[C@H]2C(C)(C)O)c(Nc2cnc(OC)nc2)c1 (single isomer, unassigned) [Example 824] ?
< 7.30

Same read-out for CC[C@H](CC(=O)O)c1ccc(N(CC(C)(C)O)C2CCCCC2)c(Nc2ccc(OC(F)F)cc2)c1 (single isomer, unassigned) [Example 237] ?
> 8.30

Same read-out for COCC(CC(=O)O)c1ccc(N(CC(C)C)C2CCCCC2)c(NC(=O)Nc2cncnc2)c1 (single isomer, unassigned) [991-1] ?
> 7.30

Same read-out for CCCN(CC1CC1)c1ccc(C(CC)CC(=O)O)cc1Nc1ccc2nc(C)sc2c1 (single isomer, unassigned) [Example 661] ?
< 7.30

Same read-out for COCC(CC(=O)O)c1cc(F)c(N(CC(C)C)CC(C)C)c(Nc2ccc3c(c2)OC(F)(F)O3)c1 (single isomer, unassigned) [Example 927] ?
> 7.30

Same read-out for CC[C@@H](CC(=O)O)c1ccc(N(CC(C)(C)O)C2CCOCC2)c(Nc2ccc3c(c2)OC(F)(F)O3)c1 (single isomer, unassigned) [Example 199] ?
> 8.30

Same read-out for CC[C@@H](CC(=O)O)c1ccc(N(CC)C2CCOCC2)c(Nc2ccc3nncn3c2)c1 (single isomer, unassigned) [Example 471] ?
< 7.30
